Test: self-splicing fitness, log relative to wild type (ln ratio); higher = more splicing; Tetrahymena group I intron in knt gene, E. coli kanamycin selection, DiMSum; sequences stand for … in CUCUCU…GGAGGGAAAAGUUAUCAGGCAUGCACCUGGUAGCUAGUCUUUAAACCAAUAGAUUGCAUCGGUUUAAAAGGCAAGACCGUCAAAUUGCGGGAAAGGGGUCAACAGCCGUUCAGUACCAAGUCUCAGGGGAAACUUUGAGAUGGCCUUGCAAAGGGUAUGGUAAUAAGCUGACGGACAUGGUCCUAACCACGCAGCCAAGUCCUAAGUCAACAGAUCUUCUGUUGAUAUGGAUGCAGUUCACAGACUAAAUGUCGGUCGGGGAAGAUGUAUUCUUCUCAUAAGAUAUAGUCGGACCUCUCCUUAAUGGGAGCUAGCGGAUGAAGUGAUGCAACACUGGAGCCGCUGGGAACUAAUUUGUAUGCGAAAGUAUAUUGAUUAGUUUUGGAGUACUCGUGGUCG;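 further: selection with 25 µg/mL kanamycin versus none on LB agar overnight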
Settings: 37 °C
EXPERIMENTAL READOUT: self-splicing fitness (ln)

>>> result("GUAGAGCAAUAUUACGCCCG")
-1.85
>>> result("AUCCAGCAAUAUUACGGGGG")
-1.96
>>> result("UCCUAGCAAUAUUACGUCGA")
0.0864
>>> result("CCAUAGCAAUAUUACGCCCU")
-2.84
>>> result("AAAUAGCAAUAUUACGUUAC")
-2.77
>>> result("ACAAAGCAAUAUUACGCCUU")
-0.625
>>> result("AAUGAGCAAUAUUACGAUAG")
-2.04
>>> result("GCAUAGCAAUAUUACGUAAG")
-0.386
>>> result("CGCGAGCAAUAUUACGACAG")
-0.403
>>> result("GAGCAGCAAUAUUACGUUCG")
-0.474
>>> result("GAGGAGCAAUAUUACGCGUC")
-1.75
>>> result("AGGUAGCAAUAUUACGGGAA")
-2.11
>>> result("CGCCAGCAAUAUUACGACAA")
-0.75
>>> result("ACACAGCAAUAUUACGGCAU")
0.227
>>> result("ACCCAGCAAUAUUACGCAGU")
-0.106
>>> result("CGGCAGCAAUAUUACGUGCU")
-1.63
>>> result("UCACAGCAAUAUUACGAGGG")
-1.28
>>> result("CGUUAGCAAUAUUACGGGGG")
-3.46
>>> result("UCAUAGCAAUAUUACGCUCC")
-0.786
>>> result("UCGAAGCAAUAUUACGACUG")
-0.774
>>> result("AUUGAGCAAUAUUACGAGCA")
-1.93
>>> result("AAUUAGCAAUAUUACGAACG")
-0.153
>>> result("UAAAAGCAAUAUUACGGUAC")
-1.42
>>> result("CGUGAGCAAUAUUACGACCG")
-1.39
>>> result("ACAGAGCAAUAUUACGGUAA")
-2.26
>>> result("ACCAAGCAAUAUUACGAUUA")
-1.03
